Hey, just so you know, these numbers are from patent US20210380703A1.

In this section, each of the binders is paired with its reported optical density.
Molecular target: mouse ACVR2A (mouse, UniProt P27038 20-135, limits assumed); also: test concentration or dose not given here
Sequence (P27038 20-135 limits assumed): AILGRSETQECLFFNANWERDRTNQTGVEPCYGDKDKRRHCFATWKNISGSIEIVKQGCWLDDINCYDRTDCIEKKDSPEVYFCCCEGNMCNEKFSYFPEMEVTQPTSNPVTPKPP
Assay: ELISA
Please state the figure in OD; there is no need to write the unit.

Completed entries (count: 3):
INSERT INTO measurements (binder, testreadout, readoutvalue) VALUES
  ('367_D02 (antibody, V domains shown, VH and VL only) VH: EVQLLESGGGLVQPGGSLRLSCAASGFTFDDYSMNWVRQAPGKGLEWVSNINYNGGYTSYADSVKGRFTISRDNSKNTLYLQMNSLRAEDTAVYYCARSATWHDTHLDYWGQGTLVTVSS VL: DIQMTQSPSSLSASVGDRVTITCRASQSIVTYVNWYQQKPGKAPKLLIYAATSRASGVPSRFSGSGSGTDFTLTISSLQPEDFATYYCQQSYENPLTFGGGTKVEIK', 'optical density', 2.46),
  ('369_E04 (antibody, V domains shown, VH and VL only) VH: EVQLLESGGGLVQPGGSLRLSCAASGFTFSDYSMNWVRQAPGKGLEWVSGINYNSGYKSYADSVKGRFTISRDNSKNTLYLQMNSLRAEDTAVYYCARSATWHDTHLDYWGQGTLVTVSS VL: DIQMTQSPSSLSASVGDRVTITCRASQSILSYVNWYQQKPGKAPKLVIYAATSRASGVPSRFSGSGSGTDFTLTISSLQPEDFATYYCQQSYSLPLTFGGGTKVEIK', 'optical density', 3.3),
  ('375_G10 (antibody, V domains shown, VH and VL only) VH: EVQLLESGGGLVQPGGSLRLSCAASGFTFSSYGMNWVRQAPGKGLEWVSSINYNGGYKSYADSVKGRFTISRDNSKNTLYLQMNSLRAEDTAVYYCARSATWHDTHLDYWGQGTLVTVSS VL: DIQMTQSPSSLSASVGDRVTITCRASQSIVTYLNWYQQKPGKAPKLVIYAATSRHSGVPSRFSGSGSGTDFTLTISSLQPEDFATYYCQQSYDTPLTFGGGTKVEIK', 'optical density', 3.64);

Now consider a different binder.
query: Output optical density of 374_E06 (antibody, V domains shown, VH and VL only) VH: EVQLLESGGGLVQPGGSLRLSCAASGFTFDSYSMNWVRQAPGKGLEWVSSINYNSGYKGYADSVKGRFTISRDNSKNTLYLQMNSLRAEDTAVYYCARSATWHDTHLDYWGQGTLVTVSS VL: DIQMTQSPSSLSASVGDRVTITCRASQSILSYLNWYQQKPGKAPKLLIYAATSRASGVPSRFSGSGSGTDFTLTISSLQPEDFATYYCQQSYDLPLTFGGGTKVEIK
result: 3.75
